- MEASUREMENT TARGET: human lung tryptase
- METHOD DESCRIPTION: β-Tryptase In-Vitro Enzyme Assay
- RECORDED CONDITIONS: human lung tryptase 1 nM, substrate H-D-HHT-Ala-Arg-pNa 500 μM, pH 7.4, room temperature
ENDPOINT NAME: log10(IC50) (log10 of the value in nM)
Recorded IC50 (log10, nM)

Request: Read the entry N=C(NO)c1ccc2c(c1)C1(CCN(C(=O)c3ccc(C#Cc4ccccc4)o3)CC1)CO2 and write its reported log10(IC50).
Response: 1.85

Request: Read the entry NCc1ccc2c(c1)C1(CCN(C(=O)c3ccc(CN4CCOCC4)o3)CC1)CO2 and write its reported log10(IC50).
Response: 3.23

Request: Read the entry NCc1ccc2c(c1)C1(CCN(C(=O)/C=C/c3ccccc3Br)CC1)CO2 and write its reported log10(IC50).
Response: 2.26

Request: Read the entry NCc1ccc2c(c1)C1(CCN(C(=O)c3ccc(Br)c([N+](=O)[O-])c3)CC1)CO2 and write its reported log10(IC50).
Response: 2.63

Request: Read the entry NCc1ccc2c(c1)C1(CCN(C(=O)c3scc4c3CCCC4)CC1)CO2 and write its reported log10(IC50).
Response: 2.45

Request: Read the entry Cc1ccccc1C#Cc1ccc(C(=O)N2CCC3(CC2)COc2ccc(CN)cc23)o1 and write its reported log10(IC50).
Response: 0.08

Request: Read the entry CN(C)C(=N)c1ccc2c(c1)C1(CCN(C(=O)c3ccc(C#Cc4ccccc4)o3)CC1)CO2 and write its reported log10(IC50).
Response: 2.15

Request: Read the entry Cc1ccc(/C=C/C(=O)N2CCC3(CC2)COc2ccc(CN)cc23)cc1 and write its reported log10(IC50).
Response: 2.89

Request: Read the entry NCc1ccc2c(c1)C1(CCN(C(=O)c3ccc(C#Cc4ccccc4)o3)CC1)CN2S(=O)(=O)c1ccc(C(=O)O)cc1 and write its reported log10(IC50).
Response: 2.30

Request: Read the entry NCc1ccc2c(c1)C1(CCN(C(=O)c3ccc(-c4cc(C(F)(F)F)ccc4Cl)o3)CC1)CO2 and write its reported log10(IC50).
Response: 2.00

Request: Read the entry Cn1cnc(S(=O)(=O)N2CC3(CCN(C(=O)c4ccc(C#Cc5ccccc5)o4)CC3)c3cc(CN)ccc32)c1 and write its reported log10(IC50).
Response: 1.45

Request: Read the entry NCc1ccc2c(c1)C1(CCN(C(=O)Cc3cccc(Br)c3)CC1)CO2 [Cpd 95] and write its reported log10(IC50).
Response: 3.51

Request: Read the entry Cc1cc(C(=O)N2CCC3(CC2)COc2ccc(CN)cc23)ccc1Br and write its reported log10(IC50).
Response: 2.15

Request: Read the entry NCc1ccc2c(c1)C1(CCN(C(=O)c3sc(SCc4ccccc4)c4c3CCC=C4)CC1)CO2 and write its reported log10(IC50).
Response: 0.71

Request: Read the entry NCc1ccc2c(c1)C1(CCN(C(=O)c3ccc(-c4ccc(Cl)cc4)o3)CC1)CO2 and write its reported log10(IC50).
Response: 1.82

Request: Read the entry NCc1ccc2c(c1)C1(CCN(C(=O)c3cccs3)CC1)CO2 and write its reported log10(IC50).
Response: 2.32

Request: Read the entry COc1ccccc1/C=C\C(=O)N1CCC2(CC1)COc1ccc(CN)cc12 and write its reported log10(IC50).
Response: 3.76

Request: Read the entry NCc1ccc2c(c1)C1(CCN(C(=O)c3ccc(C#Cc4ccccc4)o3)CC1)CN2S(=O)(=O)c1cccs1 and write its reported log10(IC50).
Response: 1.41

Request: Read the entry NCc1ccc2c(c1)C1(CCN(C(=O)c3ccc(C#Cc4cc(F)cc(F)c4)o3)CC1)CO2 and write its reported log10(IC50).
Response: 1.61

Request: Read the entry Cc1c(C#N)sc2sc(C(=O)N3CCC4(CC3)COc3ccc(CN)cc34)c(C)c12 and write its reported log10(IC50).
Response: 3.51

Request: Read the entry NCc1ccc2c(c1)C1(CCN(C(=O)/C=C/c3ccccc3Cl)CC1)CO2 and write its reported log10(IC50).
Response: 1.72

Request: Read the entry NCc1ccc2c(c1)C1(CCN(C(=O)c3cc(-c4ccccc4)cs3)CC1)CO2 and write its reported log10(IC50).
Response: 2.45

Request: Read the entry NCc1ccc2c(c1)C1(CCN(C(=O)c3sc4cc(F)ccc4c3Cl)CC1)CO2 and write its reported log10(IC50).
Response: 2.23

Request: Read the entry NCc1ccc2c(c1)C1(CCN(C(=O)/C(=C/c3ccccc3)c3ccccc3)CC1)CO2 and write its reported log10(IC50).
Response: 2.77

Request: Read the entry Cc1ccccc1Oc1cccc(CC(=O)N2CCC3(CC2)COc2ccc(CN)cc23)c1 and write its reported log10(IC50).
Response: 1.08

Request: Read the entry NCc1ccc2c(c1)C1(CCN(C(=O)c3cccc(Oc4ccccc4)c3)CC1)CO2 and write its reported log10(IC50).
Response: 2.38

Request: Read the entry Cc1ccc2nc(C(=O)N3CCC4(CC3)COc3ccc(CN)cc34)cn2c1 and write its reported log10(IC50).
Response: 3.15

Request: Read the entry Cn1nc(C(F)(F)F)cc1-c1ccc(C(=O)N2CCC3(CC2)COc2ccc(CN)cc23)s1 and write its reported log10(IC50).
Response: 3.57

Request: Read the entry NCc1ccc2c(c1)C1(CCN(C(=O)c3ccc(Cl)c(I)c3)CC1)CO2 and write its reported log10(IC50).
Response: 1.30

Request: Read the entry NCc1ccc2c(c1)C1(CCN(C(=O)c3cccc(OC(F)(F)F)c3)CC1)CO2 and write its reported log10(IC50).
Response: 3.32

Request: Read the entry COC(=O)c1ccc(C(=O)N2CCC3(CC2)COc2ccc(CN)cc23)cc1 and write its reported log10(IC50).
Response: 2.85

Request: Read the entry NCc1ccc2c(c1)C1(CCN(C(=O)c3cc(Br)c(Br)s3)CC1)CN2S(=O)(=O)O and write its reported log10(IC50).
Response: 1.83

Request: Read the entry O=C(NCc1ccc2c(c1)C1(CCNCC1)CO2)c1ccc(Cl)c(Cl)c1 and write its reported log10(IC50).
Response: 3.15

Request: Read the entry NCc1ccc2c(c1)C1(CCN(C(=O)c3ccc(-c4ccccc4)o3)CC1)CO2 and write its reported log10(IC50).
Response: 1.45

From: patent US8158792B2
